The reported numbers originate from patent US20250145665A1.

Assignment: determine reported pIC50 for the given compounds.
- STUDY_SYSTEM: TNFα (Homo sapiens, UniProt P01375)
- Sequence (P01375 77-233 limits assumed): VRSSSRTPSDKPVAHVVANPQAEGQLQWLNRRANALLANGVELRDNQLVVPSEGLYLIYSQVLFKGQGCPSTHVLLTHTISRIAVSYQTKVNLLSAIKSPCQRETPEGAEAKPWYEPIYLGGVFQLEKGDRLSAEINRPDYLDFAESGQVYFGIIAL
- ASSAY: TNF-Induced HEK-Blue Assay
- Assay type: cell-based
- EXPERIMENTAL_SETUP: HEK-Blue-CD40L cells, NF-kB-driven secreted alkaline phosphatase reporter; TNFα 0.5 ng/ml; 18 h; read-out: TNF induced HEK-Blue assay IC50 value
pIC50: −log10 of the molar value. Starred links: 1 amine or outer side, 2 acyl side, 3 side chain; linkers in the order of their positions; H or OH if unused. Positions of bridges follow the written chain, without caps; N, C: chain ends. Non-standard residues stand in square brackets, D forms with d. Residues, ends and D or L forms follow the SMILES beside them. X9 = Cn1nc(C(=O)Nc2cccc(-c3ccc(C[C@H](N[*:1])C(=O)[*:2])cc3)c2)c2cccnc21; X47 = O=C(Nc1ccc(-c2ccc(C[C@H](N[*:1])C(=O)[*:2])cc2)cc1)c1coc2ccccc12; Bip(4'-CONHMe) = CNC(=O)c1ccc(-c2ccc(C[C@H](N)C(=O)O)cc2)cc1; Bip(4'-COOH) = N[C@@H](Cc1ccc(-c2ccc(C(=O)O)cc2)cc1)C(=O)O; Bip(4'-NHAc) = CC(=O)Nc1ccc(-c2ccc(C[C@H](N)C(=O)O)cc2)cc1; Ala(morpholin-4-yl) = N[C@@H](CN1CCOCC1)C(=O)O; Bip = N[C@@H](Cc1ccc(-c2ccccc2)cc1)C(=O)O; Hyp = O=C(O)[C@@H]1C[C@@H](O)CN1; Tic = O=C(O)[C@@H]1Cc2ccccc2CN1; Cha = N[C@@H](CC1CCCCC1)C(=O)O; Tle = CC(C)(C)[C@H](N)C(=O)O; Aze = O=C(O)[C@@H]1CCN1; Sar = CNCC(=O)O

# pIC50 (compound: CC(C)C[C@@H]1NC(=O)[C@H](Cc2ccc(O)cc2)NC(=O)[C@H](C(C)C)NC(=O)[C@@H]2CCCN2C(=O)[C@H](C(C)C)NC(=O)[C@@H](CCCNC(=N)N)NC(=O)[C@H](CC(=O)O)NC(=O)[C@H](Cc2ccc(O)cc2)NC(=O)CN(C)C(=O)[C@H](Cc2ccc(-c3ccccc3)cc2)NC(=O)[C@H](Cc2ccc(-c3ccc(C(=O)O)cc3)cc2)NC(=O)[C@H](CC2CCCCC2)NC(=O)CSC[C@@H](C(=O)NCC(N)=O)NC1=O [Example 187] ({CH2CO}-[Cha][Bip(4'-COOH)][Bip][Sar]YD[dR]VPVYLCG-NH2; thioether N-13) ) is 6.70 to 7.30

# pIC50 (compound: CC(C)C[C@@H]1NC(=O)[C@H](Cc2ccc(O)cc2)NC(=O)[C@H](C(C)C)NC(=O)[C@@H]2CCCN2C(=O)[C@H](C(C)C)NC(=O)[C@@H](CCCNC(=N)N)NC(=O)[C@H](CC(=O)O)NC(=O)[C@H](Cc2ccc(O)cc2)NC(=O)CNC(=O)[C@H](Cc2ccc(-c3ccccc3)cc2)NC(=O)[C@H](Cc2ccc(-c3ccccc3)cc2)NC(=O)[C@H](CN2CCOCC2)NC(=O)CSC[C@@H](C(=O)NCC(N)=O)NC1=O [Example 131] ({CH2CO}-[Ala(morpholin-4-yl)][Bip][Bip]GYD[dR]VPVYLCG-NH2; thioether N-13) ) is 6.70 to 7.30

# pIC50 (compound: CC(C)C[C@@H]1NC(=O)[C@H](Cc2ccc(O)cc2)NC(=O)[C@H](C(C)C)NC(=O)[C@@H]2C[C@@H](O)CN2C(=O)[C@H](C(C)C)NC(=O)[C@@H](CCCNC(=N)N)NC(=O)[C@H](CC(=O)O)NC(=O)[C@@H]2CCCN2C(=O)CN(C)C(=O)[C@H](Cc2ccc(-c3ccccc3)cc2)NC(=O)[C@H](Cc2ccc(-c3ccccc3)cc2)NC(=O)[C@H](CN2CCOCC2)NC(=O)CSC[C@@H](C(=O)NCC(N)=O)NC1=O [Example 80] ({CH2CO}-[Ala(morpholin-4-yl)][Bip][Bip][Sar]PD[dR]V[Hyp]VYLCG-NH2; thioether N-13) ) is 5.70 to 6.70

# pIC50 (compound: CC(C)C[C@@H]1NC(=O)[C@H](CCCNC(=N)N)NC(=O)[C@H](C(C)C)NC(=O)[C@@H]2CCCN2C(=O)[C@H](C(C)C)NC(=O)[C@@H](CCCNC(=N)N)NC(=O)[C@H](CC(=O)O)NC(=O)[C@@H]2CCCN2C(=O)CN(C)C(=O)[C@H](Cc2ccc(-c3ccc(NC(=O)c4coc5ccccc45)cc3)cc2)NC(=O)[C@H](Cc2ccc(-c3ccccc3)cc2)NC(=O)[C@H](CN2CCOCC2)NC(=O)CSC[C@@H](C(=O)NCC(N)=O)NC1=O [Example 346] ({CH2CO}-[Ala(morpholin-4-yl)][Bip][X47][Sar]PD[dR]VPVRLCG-NH2; thioether N-13) ) is > 7.30

# pIC50 (compound: CC(C)C[C@@H]1NC(=O)[C@H](CCCNC(=N)N)NC(=O)[C@H](C(C)C)NC(=O)[C@@H]2Cc3ccccc3CN2C(=O)[C@H](C(C)C)NC(=O)[C@H](CCCNC(=N)N)NC(=O)[C@H](CC(=O)O)NC(=O)[C@@H]2CCCN2C(=O)CN(C)C(=O)[C@H](Cc2ccc(-c3ccccc3)cc2)NC(=O)[C@H](Cc2ccc(-c3ccccc3)cc2)NC(=O)[C@H](CN2CCOCC2)NC(=O)CSC[C@@H](C(=O)NCC(N)=O)NC1=O [Example 71] ({CH2CO}-[Ala(morpholin-4-yl)][Bip][Bip][Sar]PDRV[Tic]VRLCG-NH2; thioether N-13) ) is 6.70 to 7.30

# pIC50 (compound: CC(C)C[C@@H]1NC(=O)[C@H](CCCNC(=N)N)NC(=O)[C@H](C(C)C)NC(=O)[C@@H]2CCCN2C(=O)[C@H](C(C)C)NC(=O)[C@@H](CCCNC(=N)N)NC(=O)[C@H](CC(=O)O)NC(=O)[C@@H]2CCCN2C(=O)CN(C)C(=O)[C@H](Cc2ccc(-c3cccc(NC(=O)c4nn(C)c5ncccc45)c3)cc2)NC(=O)[C@H](Cc2ccc(-c3ccccc3)cc2)NC(=O)[C@H](CN2CCOCC2)NC(=O)CSC[C@@H](C(=O)NCC(N)=O)NC1=O [Example 345] ({CH2CO}-[Ala(morpholin-4-yl)][Bip][X9][Sar]PD[dR]VPVRLCG-NH2; thioether N-13) ) is > 7.30

# pIC50 (compound: CC[C@H](C)[C@@H]1NC(=O)[C@@H](CCCNC(=N)N)NC(=O)[C@H](CC(=O)O)NC(=O)[C@H](Cc2cnc[nH]2)NC(=O)CN(C)C(=O)[C@H](Cc2ccc(-c3ccc(C(=O)NC)cc3)cc2)NC(=O)[C@H](Cc2ccc(-c3ccccc3)cc2)NC(=O)[C@H](CC2CCCCC2)NC(=O)CSC[C@@H](C(=O)NCC(N)=O)NC(=O)[C@H](CC(C)C)NC(=O)[C@H](Cc2cnc[nH]2)NC(=O)[C@H](C(C)C)NC(=O)[C@@H]2CCCN2C1=O [Example 396] ({CH2CO}-[Cha][Bip][Bip(4'-CONHMe)][Sar]HD[dR]IPVHLCG-NH2; thioether N-13) ) is > 7.30

# pIC50 (compound: CC(=O)Nc1ccc(-c2ccc(C[C@@H]3NC(=O)[C@H](Cc4ccc(-c5ccc(C(=O)O)cc5)cc4)NC(=O)[C@H](C(C)(C)C)NC(=O)CSC[C@@H](C(=O)NCC(N)=O)NC(=O)[C@H](CC(C)C)NC(=O)[C@H](Cc4ccc(O)cc4)NC(=O)[C@H](C(C)C)NC(=O)[C@@H]4CCN4C(=O)[C@H](C(C)C)NC(=O)[C@@H](CCCNC(=N)N)NC(=O)[C@H](CC(=O)O)NC(=O)[C@@H]4CCCN4C(=O)CN(C)C3=O)cc2)cc1 [Example 266] ({CH2CO}-[Tle][Bip(4'-COOH)][Bip(4'-NHAc)][Sar]PD[dR]V[Aze]VYLCG-NH2; thioether N-13) ) is 6.70 to 7.30

* * *

- STUDY_SYSTEM: TNFα (Homo sapiens)
- ASSAY: TNF-Induced HEK-Blue Assay
- Type: cell-based
- EXPERIMENTAL_SETUP: HEK-Blue-CD40L cells, NF-kB-driven secreted alkaline phosphatase reporter; TNFα 0.5 ng/ml; 18 h; read-out: TNF induced HEK-Blue assay IC50 value
Positions of bridges follow the written chain, without caps; N, C: chain ends. Non-standard residues stand in square brackets, D forms with d. Residues, ends and D or L forms follow the SMILES beside them. Bip = N[C@@H](Cc1ccc(-c2ccccc2)cc1)C(=O)O; Val(3-OH) = CC(C)(O)[C@H](N)C(=O)O; hLeu = CC(C)CC[C@H](N)C(=O)O; Sar = CNCC(=O)O
QUANTITY: IC50

# IC50 (molecule: CC(C)CC[C@@H]1NC(=O)CSC[C@@H](C(=O)NCC(N)=O)NC(=O)[C@H](CC(C)C)NC(=O)[C@H](CCCNC(=N)N)NC(=O)[C@H](C(C)C)NC(=O)[C@@H]2CCCN2C(=O)[C@H](C(C)C)NC(=O)[C@H](CCCNC(=N)N)NC(=O)[C@H](CC(=O)O)NC(=O)[C@@H]2CCCN2C(=O)CN(C)C(=O)[C@H](Cc2ccc(-c3ccccc3)cc2)NC(=O)[C@H](Cc2ccc(-c3ccccc3)cc2)NC1=O [Example 28] ({CH2CO}-[hLeu][Bip][Bip][Sar]PDRVPVRLCG-NH2; thioether N-13) ) is 200 to 2000 nM

# IC50 (molecule: CC(C)C[C@@H]1NC(=O)[C@H](CCCNC(=N)N)NC(=O)[C@H](C(C)C)NC(=O)[C@@H]2CCCN2C(=O)[C@H](C(C)C)NC(=O)[C@H](CCCNC(=N)N)NC(=O)[C@H](CC(=O)O)NC(=O)[C@@H]2CCCN2C(=O)CN(C)C(=O)[C@H](Cc2ccc(-c3ccccc3)cc2)NC(=O)[C@H](Cc2ccc(-c3ccccc3)cc2)NC(=O)[C@H](C(C)(C)O)NC(=O)CSC[C@@H](C(=O)NCC(N)=O)NC1=O [Example 27] ({CH2CO}-[Val(3-OH)][Bip][Bip][Sar]PDRVPVRLCG-NH2; thioether N-13) ) is 50 to 200 nM
